assay: chemical genetic growth profiling, strain panel (AID 1159580);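 also: tested at 20 µM; growth read once vehicle control cultures reached saturation at 30 °C; 1 = growth at the plate median or of vehicle wells; lower values mean less growth of the strain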; conditions: S. cerevisiae deletion strains, growth OD, locus YNL207W, strain RIO2, active compounds read low
Hit rate of the full screen: of about 5,500 compounds, about 2,000 (36%) were called active. Roughly 18% stayed inconclusive and do not appear here. Some of the results follow.
Would you mind telling me the reported normalized growth of each entry?
Form: value (number only, do not type unit).

What normalized growth value was documented for this molecule, COc1cc(Br)cc(C=Nc2ccc(Sc3ccccc3)nc2Sc2ccccc2)c1O ?
0.961

What normalized growth value was documented for this molecule, CN(C)C=Nc1nnc(Sc2nc3c(Cl)cc(Cl)cc3s2)s1 ?
0.959

What normalized growth value was documented for this molecule, Cc1nnc2n1N=C(c1ccc(CC(C)C)cc1)C(C)S2 (stereo unspecified) ?
0.98

What normalized growth value was documented for this molecule, O=S(=O)(CS(=O)(=O)Oc1ccc(Cl)c(Cl)c1)Oc1ccc(Cl)c(Cl)c1 ?
0.941

What normalized growth value was documented for this molecule, O=C1C(Cl)=C(Oc2cc(Cl)c(Cl)cc2Cl)C(=O)c2ccccc21 ?
0.537

What normalized growth value was documented for this molecule, Oc1c(Cl)cc(Cl)cc1/C=N\NC(=S)Nc1cc(C(F)(F)F)cc(C(F)(F)F)c1 ?
0.858

###

Would you mind telling me the reported normalized growth of each entry?
assay: chemical genetic growth profiling, strain panel (AID 1159580);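 also: tested at 20 µM; growth read once vehicle control cultures reached saturation at 30 °C; 1 = growth at the plate median or of vehicle wells; lower values mean less growth of the strain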; conditions: S. cerevisiae deletion strains, growth OD, locus YIR030C, strain dcg1, active compounds read low
Screen size: about 5,500 compounds; about 2,000 (36%) were called active. Another 18% or so got no clear call; they are omitted. This is one part of the list.
Form: value (number only, do not type unit).

What normalized growth value was documented for this molecule, CC(=O)O[C@@H]1CC(=O)[C@@]2(C)C(CC(=O)[C@]3(C)C2CC[C@@]2(C)[C@H](c4ccoc4)OC(=O)C4OC423)C1(C)C (some centres undefined) ?
1.01

What normalized growth value was documented for this molecule, NC(=O)CN1CCCC1=O ?
1.01

What normalized growth value was documented for this molecule, CCCCCCCCCCCC1=C(O)C(=O)C=C(O)C1=O ?
0.972

What normalized growth value was documented for this molecule, CC(C)(O)[C@@H]1Cc2cc3ccc(=O)oc3cc2O1 ?
1.02

What normalized growth value was documented for this molecule, CC1(C)C2CC(=O)[C@]3(C)C(CC[C@@]4(C)[C@H](c5ccoc5)OC(=O)C5OC543)[C@@]2(C)[C@@H](O)C[C@H]1O (some centres undefined) ?
0.985

What normalized growth value was documented for this molecule, C[C@@H]1O[C@@H](OC[C@H]2OC(Oc3c(-c4ccc(O)c(O)c4)oc4cc(O)cc(O)c4c3=O)[C@H](O)[C@@H](O)[C@@H]2O)[C@H](O)[C@H](O)[C@H]1O (some centres undefined) ?
0.997

What normalized growth value was documented for this molecule, CO[C@@]1(NC(=O)C(C(=O)O)c2ccc(O)cc2)C(=O)N2C(C(=O)O)=C(CSc3nnnn3C)CO[C@@H]21 (some centres undefined) ?
1.02

What normalized growth value was documented for this molecule, Oc1cc2c(cc1O)C1c3ccc(O)c(O)c3OCC1(O)C2 (centres undefined) ?
1.01

What normalized growth value was documented for this molecule, COc1ccc2c3c1OC1C(O)CC=C4C(C2)N(C)CCC431 (centres undefined) ?
1.02

What normalized growth value was documented for this molecule, CCC(c1ccc(O)cc1)C(CC)c1ccc(O)cc1 (centres undefined) ?
1.01

What normalized growth value was documented for this molecule, CCC(N)C(O)c1ccc(O)c(O)c1 (centres undefined) ?
0.987

What normalized growth value was documented for this molecule, O=C1C=C2C(=CCOC2O)O1 (centres undefined) ?
0.911

What normalized growth value was documented for this molecule, CCN(Cc1ccncc1)C(=O)C(CO)c1ccccc1 (centres undefined) ?
1

What normalized growth value was documented for this molecule, CCCCOc1cc(C(=O)NCCN(CC)CC)c2ccccc2n1 ?
0.993
